# SYSTEM NAME: COX I (Homo sapiens)
# Construct: made in house; baculovirus-infected insect cells by own knowledge of the cited Barnett et al. 1994
# Sequence (P23219 24-599): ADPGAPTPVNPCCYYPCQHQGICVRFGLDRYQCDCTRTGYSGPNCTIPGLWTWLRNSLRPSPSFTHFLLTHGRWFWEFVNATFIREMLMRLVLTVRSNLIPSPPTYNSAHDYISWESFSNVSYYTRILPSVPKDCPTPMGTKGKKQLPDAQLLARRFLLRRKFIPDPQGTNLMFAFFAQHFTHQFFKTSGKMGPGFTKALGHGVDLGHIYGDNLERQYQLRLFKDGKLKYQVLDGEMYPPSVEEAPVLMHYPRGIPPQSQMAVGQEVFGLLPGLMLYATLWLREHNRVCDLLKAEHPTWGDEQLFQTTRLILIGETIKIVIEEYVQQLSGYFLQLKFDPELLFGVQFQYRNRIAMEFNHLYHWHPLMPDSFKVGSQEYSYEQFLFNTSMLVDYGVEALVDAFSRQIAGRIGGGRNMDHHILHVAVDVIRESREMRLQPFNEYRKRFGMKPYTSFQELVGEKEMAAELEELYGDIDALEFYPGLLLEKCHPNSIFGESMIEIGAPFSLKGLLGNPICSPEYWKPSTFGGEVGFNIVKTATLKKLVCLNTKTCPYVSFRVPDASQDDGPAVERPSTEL
# EXPERIMENTAL DETAILS: Inhibition of COX I in vitro (radiometric assay, 14C arachidonic acid, partially purified enzyme)
# Assay type: biochemical
# MEASUREMENT CONDITIONS: partially purified COX I, 20 micromolar arachidonic acid, 10 min preincubation, room temperature; read-out: COX I IC50
# log10 IC50 per record follows
Parameter value (number): base-10 log of IC50 in µM.

Kindly indicate its recorded log10 IC50. Item: Cc1cc(Cc2ccc(NS(N)(=O)=O)cc2C#N)n(C)c1C(=O)c1ccc(Cl)cc1 [compound 147]
-0.22

Kindly indicate its recorded log10 IC50. Item: Cc1ccc(C(=O)c2ccc(Cc3ccc(NS(N)(=O)=O)cc3F)n2C)cc1 [compound 154]
1.53

Kindly indicate its recorded log10 IC50. Item: Cc1cc(Cc2ccc(NS(=O)(=O)CCO)cn2)n(C)c1C(=O)c1ccc(Cl)cc1 [compound 267]
2.32

Kindly indicate its recorded log10 IC50. Item: Cc1cc(Cc2ccc(NC(=S)Nc3ccccc3)cn2)n(C)c1C(=O)c1ccc(Cl)cc1 [compound 316]
2.56

Kindly indicate its recorded log10 IC50. Item: COc1ccccc1C(=O)c1ccc(Cc2ccc(NS(C)(=O)=O)cc2F)n1C [compound 72]
2.42

Kindly indicate its recorded log10 IC50. Item: Cc1cc(Cc2ccc(NS(=O)(=O)N(C)C)cc2)n(C)c1C(=O)c1ccc(Cl)cc1 [compound 140]
0.73

Kindly indicate its recorded log10 IC50. Item: Cc1cc(Cc2ccc(NC(=O)N(C)C)cc2)n(C)c1C(=O)c1ccc(Cl)cc1 [compound 226]
2.00

Kindly indicate its recorded log10 IC50. Item: CNS(=O)(=O)Nc1ccc(Cc2ccc(C(=O)c3ccc(C)cc3C)n2C)c(F)c1 [compound 172]
1.63
